Value source: ChEMBL document CHEMBL2202954

test system: MDA-MB-468; test: Cytotoxicity against human MDA-MB-468 cells by SRB assay; type: functional
# binarize TGI: threshold 4000 nM inclusive, high side 1, low side 0

Field: example entries. Status: answers known.
compound string | discrete label
Nc1c(C(=O)Nc2cccc(Cl)c2)sc2nc3c(cc12)C(=O)CCC3 | 0
Cc1cc(C)c(NC(=O)c2sc3nc4c(cc3c2N)C(=O)CCC4)c(C)c1 | 0
Cc1ccc(Cl)cc1NC(=O)c1sc2nc3c(cc2c1N)C(=O)CCC3 | 1
Nc1c(C(=O)Nc2ccccc2)sc2nc3c(cc12)C(=O)CCC3 | 0
Nc1c(C(=O)Nc2ccccc2F)sc2nc3c(cc12)C(=O)CCC3 | 0

Now let's try a different one.
IN: Check the entry Cc1ccccc1NC(=O)c1sc2nc3c(cc2c1N)C(=O)CCC3 : does TGI equal or exceed 4000 nM?
OUT: 1
